- System: 324938-238-R-J1-PDC complex spheroids viability;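 note: viability read after seven days of drug exposure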
- Assay overview: Anticancer human tumor 324938-238-R-J1-PDC patient-derived bladder carcinoma cell line growth inhibition [CLK]; active = viability on the fitted dose curve at most 10% of control; inactive = the rest
- Experimental parameters: second compound 3.16 µM; first compound 0.1 µM
- From the text: A high-throughput screen of multi-cell type tumor spheroids was designed to identify active combinations of […] and targeted small molecules. Complex spheroids include a stromal component modeled by human endothelial cells (HUVEC) and fibroblasts modeled by human mesenchymal stem cells (MSCs). […] Compounds. […] If the clinical Cmax for an agent had not been determined, the highest concentration tested was 10 microM. […]
Pick one and only one: active, inactive

## Input I would be grateful if you could indicate the recorded call for COc1ccc([C@@H](O)c2cc(-c3ncnc4cc(N5CCOCC5)ccc34)c(F)cc2Cl)nn1 + CN1CCN(c2cc(C(=O)Nc3cc4cc(-c5cnn(C)c5)ccc4cn3)ccn2)CC1 .
## Output active

## Input C=C(F)C(=O)N1CCN(c2nc(OCC3CCCN3C)nc3c2CCN(c2cccc4cccc(Cl)c24)C3)CC1CC#N (stereo not drawn) + CNC(=O)c1ccc(Nc2nc(OC3CCCC3)c3c(-c4ccc5nc(C)oc5c4)c[nH]c3n2)c(OC)c1 , same question.
## Output inactive

## Input Okay, and C=CC(=O)N1CCN(c2nc(=O)n(-c3c(C)ccnc3C(C)C)c3nc(-c4c(O)cccc4F)c(F)cc23)C(C)C1 (stereo not drawn) + CN1CCN(c2cc(C(=O)Nc3cc4cc(-c5cnn(C)c5)ccc4cn3)ccn2)CC1 ?
## Output active
